Data origin, for the record: ChEMBL document CHEMBL3832761

Catalogue of pIC50 readings, one per entry.
# System: Brugia pahangi
# METHOD DESCRIPTION: AntiBrugia pahangi activity Average day 3 IC50 (uM)
# Assay type: functional, organism-based
# PROTOCOL CONDITIONS: 72 h
pIC50: −log10 of the molar value.

[
  {
    "COMPOUND STRUCTURE": "CCCCc1ccc(NC(=O)Nc2ccc(O[C@H]3CCCC[C@@H]3N(C)c3ccccc3)c(F)c2)cc1",
    "pIC50": 5.08
  },
  {
    "COMPOUND STRUCTURE": "O=C(Nc1nnc(S)s1)c1cc(Br)ccc1Cl",
    "pIC50": 5.03
  }
]

----------
MIC listing for selected compounds.
# Test system: Mycobacterium tuberculosis
# METHOD DESCRIPTION: AntiMycobacterium tuberculosis activity 2-week GAST/Fe MIC (uM)
# Assay type: functional
# PROTOCOL CONDITIONS: 336 h
MEASURED ATTRIBUTE: MIC (µM)

[
  {
    "COMPOUND": "Cc1ccc2oc(-c3cc(NC(=O)Cc4ccccc4)ccc3Cl)nc2c1",
    "OBSERVED": 9.4
  },
  {
    "COMPOUND": "FC(F)(F)c1nnc2ccc(Cl)nn12",
    "OBSERVED": 1.2
  },
  {
    "COMPOUND": "Cc1cc(OCC(=O)NCc2ccccc2)c2cc(Br)ccc2n1",
    "OBSERVED": 0.39
  },
  {
    "COMPOUND": "COc1cccc(-n2nnnc2S(=O)(=O)Cc2ccccc2)c1",
    "OBSERVED": 1.56
  },
  {
    "COMPOUND": "NC(CC(=O)c1ccc(Cl)cc1Cl)C(Cl)(Cl)Cl (stereo not given)",
    "OBSERVED": 0.6
  },
  {
    "COMPOUND": "Cc1ccc2nc(Cl)c(CNCc3cccs3)cc2c1",
    "OBSERVED": 1.56
  },
  {
    "COMPOUND": "O=C(C1CCN(c2cc(-n3cccc3)ncn2)CC1)N1CCc2ccccc2C1",
    "OBSERVED": 0.6
  },
  {
    "COMPOUND": "Clc1ccc(CCNc2cc(-c3ccccc3)nc3ncnn23)cc1",
    "OBSERVED": 1.2
  },
  {
    "COMPOUND": "COc1ccccc1OCCCCn1c(C2CC2)nc2ccccc21",
    "OBSERVED": 0.6
  },
  {
    "COMPOUND": "COc1ccc2nc(C)cc(OCC(=O)Nc3ccccc3OC)c2c1",
    "OBSERVED": 0.1
  },
  {
    "COMPOUND": "O=C(NCCc1c[nH]c2ccccc12)c1cc2ccccc2oc1=O",
    "OBSERVED": 0.6
  },
  {
    "COMPOUND": "O=C(COc1cccc(F)c1)Nc1nc(-c2ccccn2)cs1",
    "OBSERVED": 2.3
  },
  {
    "COMPOUND": "CN1CCN(c2cc(-c3ccc(F)cc3)nc(-c3ccncc3)n2)CC1",
    "OBSERVED": 12.5
  },
  {
    "COMPOUND": "NCC(c1cccs1)S(=O)(=O)c1ccccc1 (stereo not given)",
    "OBSERVED": 2.3
  },
  {
    "COMPOUND": "Cc1nn(Cc2ccccc2)c(Cl)c1C(=O)NC1CCCCCC1",
    "OBSERVED": 0.39
  }
]
